- Tested target: VLA-4 (Homo sapiens, UniProt P05556+P13612)
- Construct: host or cells: Jurkat clone E6-1
- Sequence (P13612 34-1032): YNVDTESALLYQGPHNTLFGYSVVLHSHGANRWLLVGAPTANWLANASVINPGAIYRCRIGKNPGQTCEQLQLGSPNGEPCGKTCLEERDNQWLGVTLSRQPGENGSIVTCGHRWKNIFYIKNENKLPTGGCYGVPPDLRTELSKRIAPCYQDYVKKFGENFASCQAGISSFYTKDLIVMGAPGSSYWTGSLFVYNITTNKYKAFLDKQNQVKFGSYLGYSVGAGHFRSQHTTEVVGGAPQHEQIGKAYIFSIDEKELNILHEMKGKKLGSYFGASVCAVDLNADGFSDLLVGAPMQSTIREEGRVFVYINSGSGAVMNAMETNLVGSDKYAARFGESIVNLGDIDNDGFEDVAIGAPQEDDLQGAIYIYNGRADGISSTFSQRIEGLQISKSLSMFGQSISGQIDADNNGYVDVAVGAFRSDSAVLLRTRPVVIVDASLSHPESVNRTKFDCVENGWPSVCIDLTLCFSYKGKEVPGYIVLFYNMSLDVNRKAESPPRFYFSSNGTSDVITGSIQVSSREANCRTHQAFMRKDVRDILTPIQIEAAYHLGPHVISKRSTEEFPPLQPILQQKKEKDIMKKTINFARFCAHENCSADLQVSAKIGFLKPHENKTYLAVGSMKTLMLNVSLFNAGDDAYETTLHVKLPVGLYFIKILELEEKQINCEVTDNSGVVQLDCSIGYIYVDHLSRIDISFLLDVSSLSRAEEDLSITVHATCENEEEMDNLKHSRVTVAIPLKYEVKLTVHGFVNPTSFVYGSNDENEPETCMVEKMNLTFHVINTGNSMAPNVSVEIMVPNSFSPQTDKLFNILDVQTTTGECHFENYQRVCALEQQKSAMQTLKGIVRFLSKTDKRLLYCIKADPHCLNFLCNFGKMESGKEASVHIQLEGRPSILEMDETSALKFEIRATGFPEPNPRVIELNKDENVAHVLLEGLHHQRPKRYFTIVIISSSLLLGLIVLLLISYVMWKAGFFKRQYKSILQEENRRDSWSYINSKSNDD
- Sequence (P05556 21-798): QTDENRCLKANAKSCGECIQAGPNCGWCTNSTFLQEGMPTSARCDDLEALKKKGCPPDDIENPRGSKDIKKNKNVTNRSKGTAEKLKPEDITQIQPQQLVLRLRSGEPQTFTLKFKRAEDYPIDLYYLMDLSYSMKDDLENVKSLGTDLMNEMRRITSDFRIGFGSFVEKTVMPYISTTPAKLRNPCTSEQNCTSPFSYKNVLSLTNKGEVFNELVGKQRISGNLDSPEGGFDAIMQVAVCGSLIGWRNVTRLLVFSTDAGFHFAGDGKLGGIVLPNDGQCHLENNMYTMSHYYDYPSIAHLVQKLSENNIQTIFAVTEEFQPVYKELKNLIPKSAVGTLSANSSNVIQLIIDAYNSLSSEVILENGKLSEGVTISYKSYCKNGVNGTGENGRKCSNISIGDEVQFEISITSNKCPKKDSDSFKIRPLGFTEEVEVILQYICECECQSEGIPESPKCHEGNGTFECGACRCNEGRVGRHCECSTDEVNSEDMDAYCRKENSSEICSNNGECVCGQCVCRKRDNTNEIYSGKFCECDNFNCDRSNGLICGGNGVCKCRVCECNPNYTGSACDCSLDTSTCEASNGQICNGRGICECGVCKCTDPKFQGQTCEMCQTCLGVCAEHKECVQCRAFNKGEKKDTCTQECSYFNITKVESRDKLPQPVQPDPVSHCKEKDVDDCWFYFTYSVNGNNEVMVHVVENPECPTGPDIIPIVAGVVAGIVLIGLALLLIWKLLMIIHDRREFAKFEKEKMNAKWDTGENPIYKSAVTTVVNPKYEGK
- Assay comment: Adhesion of Jurkat cells to immobilized VCAM-1 (domains 1-3)
- Assay type: cell-based
- Assay conditions: adhesion of CFSE-labeled Jurkat cells to recombinant human VCAM-1 (domains 1-3) coated plates; compounds as yielded by solid phase synthesis, purity about 40-90%; read-out: IC50
Reported IC50 values for a set of compounds

Worked cases, answers included:
Compound	Tested target	IC50
O=C(N[C@@H](Cc1ccc(NC(=O)N2CCOCC2)cc1)C(=O)O)C1CCCN(C(=O)OCc2ccccc2)C1 (stereo partly drawn) [Example 4.17]	VLA-4 (Homo sapiens, UniProt P05556+P13612)	500 to 2000 nM
CN(c1ncnc(N2CCCC(C(=O)N[C@@H](Cc3ccc(NC(=O)N4CCN(c5ccccc5)CC4)cc3)C(=O)O)C2)c1F)C1CCCCC1 (stereo partly drawn) [Example 5.43]	VLA-4 (Homo sapiens, UniProt P05556+P13612)	500 to 2000 nM
COc1ccc(OC(=O)N2CCCC(C(=O)N[C@@H](Cc3ccc(NC(=O)N4CCN(c5ccccc5)CC4)cc3)C(=O)O)C2)cc1 (stereo partly drawn) [Example 4.19]	VLA-4 (Homo sapiens, UniProt P05556+P13612)	2000 to 10000 nM
O=C(Nc1ccc(C[C@H](NC(=O)C2CCCN(C(=O)Cc3ccccc3)C2)C(=O)O)cc1)NC1CCN(Cc2ccccc2)CC1 (stereo partly drawn) [Example 4.26]	VLA-4 (Homo sapiens, UniProt P05556+P13612)	2000 to 10000 nM
COc1ccc(S(=O)(=O)N2CCCC(C(=O)NC(Cc3ccc(NC(=O)N4CCc5ccccc5C4)cc3)C(=O)O)C2)cc1OC (stereo not drawn) [Example 4.48]	VLA-4 (Homo sapiens, UniProt P05556+P13612)	≤ 500 nM

Lookup: Bench note: what IC50 did O=C(N[C@@H](Cc1ccc(NC(=O)N2CCOCC2)cc1)C(=O)O)C1CCCN(S(=O)(=O)c2cccs2)C1 (stereo partly drawn) [Example 4.42] show?
Found: ≤ 500 nM

Lookup: I have this compound here, COc1ccc(S(=O)(=O)N2CCCC(C(=O)N[C@@H](Cc3ccc(-c4ccc(Cl)cc4Cl)cc3)C(=O)O)C2)cc1OC (stereo partly drawn) [Example 1.98] , and I need its recorded IC50.
Found: 2000 to 10000 nM

Lookup: Name the reported IC50 value associated with the compound O=C(N[C@@H](Cc1ccc(-c2cc(Cl)ccc2Cl)cc1)C(=O)O)C1CCCN(c2ncnc(NCc3ccccn3)c2F)C1 (stereo partly drawn) [Example 2.1]
Found: ≤ 500 nM

Lookup: Entry under review: COc1ccccc1-c1ccc(C[C@H](NC(=O)C2CCCN(c3ncnc(N4CCNCC4)c3F)C2)C(=O)O)cc1 (stereo partly drawn) [Example 2.54] . Reported IC50?
Found: ≤ 500 nM

Lookup: Field request: IC50 | item: COCCN(C)c1ncnc(N2CCCC(C(=O)N[C@@H](Cc3ccc(NC(=O)N4CCN(c5ccccc5)CC4)cc3)C(=O)O)C2)c1F (stereo partly drawn) [Example 5.46]
Found: 500 to 2000 nM

Lookup: So what's the measured IC50 for this one? CN(c1ncnc(N2CCCC(C(=O)N[C@@H](Cc3ccc(NC(=O)N4CCOCC4)cc3)C(=O)O)C2)c1F)C1CCCCC1 (stereo partly drawn) [Example 5.36]
Found: 500 to 2000 nM

Lookup: What measured IC50 goes with O=C(N[C@@H](Cc1ccc(NC(=O)N2CCOCC2)cc1)C(=O)O)C1CCCN(c2ncnc(NC3CCN(Cc4ccccc4)CC3)c2F)C1 (stereo partly drawn) [Example 5.22] ?
Found: 2000 to 10000 nM

Lookup: Would you kindly share the measured IC50 for O=C(N[C@@H](Cc1ccc(NC(=O)N2CCN(c3ccccc3)CC2)cc1)C(=O)O)C1CCCN(c2ncnc(NCC(c3ccccc3)c3ccccc3)c2F)C1 (stereo partly drawn) [Example 5.19] ?
Found: 500 to 2000 nM

Lookup: Would you mind telling me what IC50 value was observed for CN1CCN(C(=O)Nc2ccc(C[C@H](NC(=O)C3CCCN(c4ncnc(NCC5CCNCC5)c4F)C3)C(=O)O)cc2)CC1 (stereo partly drawn) [Example 5.32] ?
Found: 500 to 2000 nM

Lookup: Fill blank: measured IC50 of the compound COc1ccc(S(=O)(=O)N2CCCC(C(=O)N[C@@H](Cc3ccc(NC(=O)N4CCOCC4)cc3)C(=O)O)C2)cc1OC (stereo partly drawn) [Example 4.34] is ____.
Found: ≤ 500 nM
